ASSAY: Long-term stability in spiked pooled human plasma
RUN_PARAMETERS: validation standard MOV
MEASUREMENT_NAME: Long-term stability, 6 weeks, 4°C, without daylight Accuracy [%] (%)

> print(dat)
                                   compound  result
1  Cc1ccc(C(=O)Nc2ccc(CN3CCN(C)CC3)c(C(F)(F)F)c2)cc1C#Cc1cnc2cccnn12 [Ponatinib]    97.9
2  COc1cc2nccc(Oc3ccc(NC(=O)C4(C(=O)Nc5ccc(F)cc5)CC4)cc3)c2cc1OC [Cabozantinib]   108.5
3  CS(=O)(=O)c1ccc(C(=O)Nc2ccc(Cl)c(-c3ccccn3)c2)c(Cl)c1 [Vismodegib]   109.8
4  O=C(c1ccc(F)c(F)c1Nc1ccc(I)cc1F)N1CC(O)([C@@H]2CCCCN2)C1 [Cobimetinib]   108.3
5  CNCc1ccc(-c2[nH]c3cc(F)cc4c3c2CCNC4=O)cc1 [Rucaparib]   103.5

* * *

ASSAY: Long-term stability in spiked pooled human plasma
RUN_PARAMETERS: validation standard LLOV
Listed here: items and their measured Long-term stability, 2 month, -80°C Accuracy [%].
MEASUREMENT_NAME: Long-term stability, 2 month, -80°C Accuracy [%] (%)

> print(dat)
                               smiles.entry  scale.unit  result
1  NC(=O)c1cccc2cn(-c3ccc([C@@H]4CCCNC4)cc3)nc12           %   102.4
2  C=CC(=O)Nc1cc(Nc2nccc(-c3cn(C)c4ccccc34)n2)c(OC)cc1N(C)CCN(C)C           %    96.9
3  COC(=O)c1ccc2c(c1)NC(=O)/C2=C(\Nc1ccc(N(C)C(=O)CN2CCN(C)CC2)cc1)c1ccccc1           %    94.3
4  COc1cc(N2CCC(N3CCN(C)CC3)CC2)ccc1Nc1ncc(Cl)c(Nc2ccccc2P(C)(C)=O)n1           %    96.7
5  O=C(c1ccc(F)c(F)c1Nc1ccc(I)cc1F)N1CC(O)([C@@H]2CCCCN2)C1           %    97.9
6  COc1cc2ncnc(Nc3ccc(F)c(Cl)c3)c2cc1NC(=O)/C=C/CN1CCCCC1           %   105.1

* * *

Listed here: items and their measured Short-time stability (1h, 56°C) Accuracy [%].
ASSAY: Short-term stability in spiked pooled human plasma (bench-top, 4 °C, 56 °C)
RUN_PARAMETERS: validation standard 2xLLOV
MEASUREMENT_NAME: Short-time stability (1h, 56°C) Accuracy [%]

> print(dat)
                                   molecule  result
1  NC(=O)c1cccc2cn(-c3ccc([C@@H]4CCCNC4)cc3)nc12   53.4%
2  CCCS(=O)(=O)Nc1ccc(F)c(C(=O)c2c[nH]c3ncc(-c4ccc(Cl)cc4)cc23)c1F   41.6%
3  CNC(=O)c1cc(Oc2ccc(NC(=O)Nc3ccc(Cl)c(C(F)(F)F)c3)cc2)ccn1   38.6%
4  N#CC[C@H](C1CCCC1)n1cc(-c2ncnc3[nH]ccc23)cn1   63.9%
5  O=C(c1cc(Cc2n[nH]c(=O)c3ccccc23)ccc1F)N1CCN(C(=O)C2CC2)CC1   64.1%
6  CCOc1cc2ncc(C#N)c(Nc3ccc(OCc4ccccn4)c(Cl)c3)c2cc1NC(=O)/C=C/CN(C)C   -7.9%
7  O=C(c1ccc(F)c(F)c1Nc1ccc(I)cc1F)N1CC(O)([C@@H]2CCCCN2)C1   51.4%
8  COc1cc2nccc(Oc3ccc(NC(=O)C4(C(=O)Nc5ccc(F)cc5)CC4)cc3)c2cc1OC [Cabozantinib]   49.1%
9  CNC(=O)c1ccc(N2C(=S)N(c3cnc(C#N)c(C(F)(F)F)c3)C(=O)C23CCC3)cc1F [Apalutamide]   46.5%

* * *

ASSAY: Autosampler stability of ready for injection samples
Type: physicochemical, human
RUN_PARAMETERS: validation standard ULOV
MEASUREMENT_NAME: Autosampler (24h, 4°C) Accuracy [%]

> print(dat)
                                    molecule  result
 1  CNCc1ccc(-c2[nH]c3cc(F)cc4c3c2CCNC4=O)cc1  100.1%
 2  COc1cc(N2CCC(N3CCN(C)CC3)CC2)ccc1Nc1ncc(Cl)c(Nc2ccccc2P(C)(C)=O)n1   96.1%
 3  CO[C@@H]1[C@H](N(C)C(=O)c2ccccc2)C[C@H]2O[C@]1(C)n1c3ccccc3c3c4c(c5c6ccccc6n2c5c31)C(=O)NC4  102.8%
 4  CC1(C)CCC(CN2CCN(c3ccc(C(=O)NS(=O)(=O)c4ccc(NCC5CCOCC5)c([N+](=O)[O-])c4)c(Oc4cnc5[nH]ccc5c4)c3)CC2)=C(c2ccc(Cl)cc2)C1  103.7%
 5  Cc1cn(-c2cc(NC(=O)c3ccc(C)c(Nc4nccc(-c5cccnc5)n4)c3)cc(C(F)(F)F)c2)cn1  100.3%
 6  CCCS(=O)(=O)Nc1ccc(F)c(C(=O)c2c[nH]c3ncc(-c4ccc(Cl)cc4)cc23)c1F  104.1%
 7  CNC(=O)c1ccc(N2C(=S)N(c3ccc(C#N)c(C(F)(F)F)c3)C(=O)C2(C)C)cc1F [Enzalutamide]  101.7%
 8  Cc1cc(Nc2ncc(Cl)c(Nc3ccccc3S(=O)(=O)C(C)C)n2)c(OC(C)C)cc1C1CCNCC1  101.3%
 9  Cc1[nH]c2ccccc2c1CCNCc1ccc(/C=C/C(=O)NO)cc1   95.4%
10  CNC(=O)c1cc(Oc2ccc(NC(=O)Nc3ccc(Cl)c(C(F)(F)F)c3)c(F)c2)ccn1  104.2%
11  Cc1c(C(=O)Nc2ccc(N3C[C@@H](C)O[C@@H](C)C3)nc2)cccc1-c1ccc(OC(F)(F)F)cc1  101.3%
12  CS(=O)(=O)c1ccc(C(=O)Nc2ccc(Cl)c(-c3ccccn3)c2)c(Cl)c1   96.6%
13  COC(=O)c1ccc2c(c1)NC(=O)/C2=C(\Nc1ccc(N(C)C(=O)CN2CCN(C)CC2)cc1)c1ccccc1  102.7%
14  CC(=O)c1c(C)c2cnc(Nc3ccc(N4CCNCC4)cn3)nc2n(C2CCCC2)c1=O  103.9%
15  Cn1cnc2c(F)c(Nc3ccc(Br)cc3F)c(C(=O)NOCCO)cc21  102.1%

* * *

ASSAY: Freeze-thaw stability in spiked pooled human plasma
Format: physicochemical
RUN_PARAMETERS: validation standard ULOV
MEASUREMENT_NAME: Freeze-Thaw Accuracy [%]

> print(dat)
                               smiles.entry  result
1  CC(=O)Nc1cccc(-n2c(=O)n(C3CC3)c(=O)c3c(Nc4ccc(I)cc4F)n(C)c(=O)c(C)c32)c1   97.0%
2  COC(=O)c1ccc2c(c1)NC(=O)/C2=C(\Nc1ccc(N(C)C(=O)CN2CCN(C)CC2)cc1)c1ccccc1   95.8%
3  C=CC(=O)Nc1cc(Nc2nccc(-c3cn(C)c4ccccc34)n2)c(OC)cc1N(C)CCN(C)C   92.7%
4  O=C(Nc1cnn2ccc(N3CCC[C@@H]3c3cc(F)ccc3F)nc12)N1CC[C@H](O)C1  102.3%
5  N#CC[C@H](C1CCCC1)n1cc(-c2ncnc3[nH]ccc23)cn1   97.2%
6  O=c1[nH]c(=O)n([C@H]2C[C@H](O)[C@@H](CO)O2)cc1C(F)(F)F   91.6%
7  CNC(=O)c1cc(Oc2ccc(NC(=O)Nc3ccc(Cl)c(C(F)(F)F)c3)c(F)c2)ccn1   98.6%
8  CS(=O)(=O)c1ccc(C(=O)Nc2ccc(Cl)c(-c3ccccn3)c2)c(Cl)c1   94.1%

* * *

ASSAY: Autosampler stability of ready for injection samples
Format: physicochemical, human
RUN_PARAMETERS: validation standard LLOV
MEASUREMENT_NAME: Autosampler (24h, 4°C) Accuracy [%] (%)

> print(dat)
                               smiles.entry  result
1  CC(C)(C)c1nc(-c2cccc(NS(=O)(=O)c3c(F)cccc3F)c2F)c(-c2ccnc(N)n2)s1    93.5
2  Cc1ccc(NC(=O)c2ccc(CN3CCN(C)CC3)cc2)cc1Nc1nccc(-c2cccnc2)n1   102.3
3  C[C@@H](Oc1cc(-c2cnn(C3CCNCC3)c2)cnc1N)c1c(Cl)ccc(F)c1Cl    88.1
4  CS(=O)(=O)CCNCc1ccc(-c2ccc3ncnc(Nc4ccc(OCc5cccc(F)c5)c(Cl)c4)c3c2)o1    92.7

* * *

ASSAY: Long-term stability in spiked pooled human plasma
RUN_PARAMETERS: validation standard MOV
Long-term stability, 1 month, -80°C Accuracy [%] vs 90%: at or above is Condition met, below is Condition not met.

> print(dat)
                                   molecule                cat
1  CC1(C)CCC(CN2CCN(c3ccc(C(=O)NS(=O)(=O)c4ccc(NCC5CCOCC5)c([N+](=O)[O-])c4)c(Oc4cnc5[nH]ccc5c4)c3)CC2)=C(c2ccc(Cl)cc2)C1      Condition met
2  NC(=O)c1cccc2cn(-c3ccc([C@@H]4CCCNC4)cc3)nc12      Condition met
3  O=C1CCC(N2C(=O)c3ccccc3C2=O)C(=O)N1 (centres unmarked) [Thalidomide]  Condition not met
4  CNC(=O)c1cc(Oc2ccc(NC(=O)Nc3ccc(Cl)c(C(F)(F)F)c3)c(F)c2)ccn1      Condition met
5  COc1cc2nccc(Oc3ccc(NC(=O)NC4CC4)c(Cl)c3)c2cc1C(N)=O      Condition met
